test: Cell cycle arrest in rat HSC-T6 cells assessed as inhibition of DNA synthesis at S phase at 25 uM after 24 hrs; assay type: functional, cell-based; design: scale not given: the % may be the effect or the level left
assayMetric: Activity (%)
Record the value in %, omitting the unit from your answer.

I am curious: what Activity value has been reported for `C[C@H]1[C@H](C)CC[C@]2(C(=O)O)CC[C@]3(C)C(=CC[C@@H]4[C@@]5(C)C[C@@H](O)[C@H](O)C(C)(C)[C@@H]5CC[C@]43C)[C@H]12` ?
10.6

Activity for `C=C(C)[C@@H]1CC[C@]2(C)CC[C@]3(C)[C@H](CC[C@@H]4[C@@]5(C)C[C@@H](O)[C@H](O)C(C)(C)[C@@H]5CC[C@]43C)[C@@H]12` ?
13.7

Find the recorded Activity belonging to `C[C@H]1[C@H](C)CC[C@]2(C(=O)O)CC[C@]3(C)C(=CC[C@@H]4[C@@]5(C)CC[C@H](O)C(C)(C)[C@@H]5CC[C@]43C)[C@H]12` and report it.
11.9

Reported Activity for `CC1(C)C=C2[C@H]3CC[C@@H]4[C@@]5(C)C(=O)C[C@H](O)C(C)(C)[C@@H]5CC[C@@]4(C)[C@]3(C)CC[C@@]2(C)CC1` : what is it?
14

Given the molecule O=C(O[C@@H]1Cc2c(O)cc(O)cc2O[C@@H]1c1cc(O)c(O)c(O)c1)c1cc(O)c(O)c(O)c1 [EPIGALOCATECHIN GALLATE] , what is its reported Activity?
12.1

----------
experiment: Cell cycle arrest in rat HSC-T6 cells assessed as inhibition of DNA synthesis at G2/M phase at 25 uM after 48 hrs; format: functional, cell-based; set-up: scale not given: the % may be the effect or the level left
Assign Activity to each entry below.
Answer format: numeric, % implied, no suffix.

# input molecule: `CC1(C)C=C2[C@H]3CC[C@@H]4[C@@]5(C)C(=O)C[C@H](O)C(C)(C)[C@@H]5CC[C@@]4(C)[C@]3(C)CC[C@@]2(C)CC1` ; wanted: its Activity
18.8

Returns the measured Activity for the input molecule. Input: O=C(O[C@@H]1Cc2c(O)cc(O)cc2O[C@@H]1c1cc(O)c(O)c(O)c1)c1cc(O)c(O)c(O)c1 [EPIGALOCATECHIN GALLATE]
19.6

Endpoint output: Activity of `C[C@H]1[C@H](C)CC[C@]2(C(=O)O)CC[C@]3(C)C(=CC[C@@H]4[C@@]5(C)CC[C@H](O)C(C)(C)[C@@H]5CC[C@]43C)[C@H]12` . Value?
16.7

Given `C[C@H]1[C@H](C)CC[C@]2(C(=O)O)CC[C@]3(C)C(=CC[C@@H]4[C@@]5(C)C[C@@H](O)[C@H](O)C(C)(C)[C@@H]5CC[C@]43C)[C@H]12` , state its recorded Activity.
6

Quick check: Activity of `C=C(C)[C@@H]1CC[C@]2(C)CC[C@]3(C)[C@H](CC[C@@H]4[C@@]5(C)C[C@@H](O)[C@H](O)C(C)(C)[C@@H]5CC[C@]43C)[C@@H]12` ?
18

----------
test: Cell cycle arrest in rat HSC-T6 cells assessed as inhibition of DNA synthesis at S phase at 25 uM after 48 hrs; assay type: functional, cell-based; parameters: scale not given: the % may be the effect or the level left
Rule: True for Activity not less than 10%, False for anything less.

Say whether `C=C(C)[C@@H]1CC[C@]2(C)CC[C@]3(C)[C@H](CC[C@@H]4[C@@]5(C)C[C@@H](O)[C@H](O)C(C)(C)[C@@H]5CC[C@]43C)[C@@H]12` shows Activity of 10% or more.
True

Would you say O=C(O[C@@H]1Cc2c(O)cc(O)cc2O[C@@H]1c1cc(O)c(O)c(O)c1)c1cc(O)c(O)c(O)c1 [EPIGALOCATECHIN GALLATE] shows Activity at minimum 10%?
False

Form field: Activity at least 10%? Entry: `CC1(C)C=C2[C@H]3CC[C@@H]4[C@@]5(C)C(=O)C[C@H](O)C(C)(C)[C@@H]5CC[C@@]4(C)[C@]3(C)CC[C@@]2(C)CC1`
True

Identify whether the reported Activity of the following compound is 10% or greater: `C[C@H]1[C@H](C)CC[C@]2(C(=O)O)CC[C@]3(C)C(=CC[C@@H]4[C@@]5(C)C[C@@H](O)[C@H](O)C(C)(C)[C@@H]5CC[C@]43C)[C@H]12`
False

Assess whether reported Activity for `C[C@H]1[C@H](C)CC[C@]2(C(=O)O)CC[C@]3(C)C(=CC[C@@H]4[C@@]5(C)CC[C@H](O)C(C)(C)[C@@H]5CC[C@]43C)[C@H]12` sits at 10% or higher.
False
